Test system: 648629-189-R-J1-PDC spheroids with HUVEC/MSC, viability
assayDetails: Anticancer human tumor 648629-189-R-J1-PDC patient-derived bladder carcinoma cell line growth inhibition [PI3K]
conditions: second compound 0.00316 µM; first compound 3.16 µM; active compounds read low
Source text: Combinatorial screen of targeted agents with the PI3K inhibitors inavolisib, alpelisib, duvelisib, and copanlisib in multi-cell type tumor spheroids A high-throughput screen of multi-cell type tumor spheroids was designed to identify active combinations of targeted small molecules and PI3K pathway inhibitors. […] Compounds. […] If the clinical Cmax for an agent had not been determined, the highest concentration tested was 10 microM. […]
Please go through the items and note down their viability, T/C.

Data request, read-out viability, T/C, for CC1(C)CCC(Nc2ncc(C(F)(F)F)c(-c3c[nH]c4c(P(C)(C)=O)c(C#N)ccc34)n2)CN1 (stereo not given) + COc1c(OCCCN2CCOCC2)ccc2c3n(c(=NC(=O)c4cnc(N)nc4)nc12)CCN3
41.1%

viability, T/C lookup needed for CC(C)NCC(C(=O)N1CCN(c2ncnc3c2C(C)CC3O)CC1)c1ccc(Cl)cc1 (stereo not given) + COc1c(OCCCN2CCOCC2)ccc2c3n(c(=NC(=O)c4cnc(N)nc4)nc12)CCN3 , thanks.
26.1%

Can you look up the measured viability, T/C of CC1(C)CCC(CN2CCN(c3ccc(C(=O)NS(=O)(=O)c4ccc(NCC5CCOCC5)c([N+](=O)[O-])c4)c(Oc4cnc5[nH]ccc5c4)c3)CC2)=C(c2ccc(Cl)cc2)C1 + CC(Nc1ccc2c(c1)OCCn1cc(N3C(=O)OCC3C(F)F)nc1-2)C(N)=O for me?
76.7%

// returns reported viability, T/C for input C#Cc1c(F)ccc2cc(O)cc(-c3ncc4c(N5CC6CCC(C5)N6)nc(OCC56CCCN5CC(F)C6)nc4c3F)c12 (stereo not given) + CC(Nc1ccc2c(c1)OCCn1cc(N3C(=O)OCC3C(F)F)nc1-2)C(N)=O
120%

Could you tell me which viability, T/C is on file for CC(Cn1ccc(-c2ccc(C#N)c(Cl)c2)n1)NC(=O)c1cc(C(C)O)[nH]n1 (stereo not given) + COc1c(OCCCN2CCOCC2)ccc2c3n(c(=NC(=O)c4cnc(N)nc4)nc12)CCN3 ?
83.8%

----------
Tested on: 648629-189-R-J1-PDC spheroids with HUVEC/MSC, viability
assayDetails: Anticancer human tumor 648629-189-R-J1-PDC cell line growth inhibition [PI3K]; active means viability on the fitted dose curve at most 10% of control; inactive means the rest;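 also: spheroids exposed to agents for seven days before reading; percent of vehicle control luminescence where 100% = DMSO treated spheroids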
conditions: second compound 3.16 µM; first compound 10 µM
Description: Combinatorial screen of targeted agents with the PI3K inhibitors inavolisib, alpelisib, duvelisib, and copanlisib in multi-cell type tumor spheroids A high-throughput screen of multi-cell type tumor spheroids was designed to identify active combinations of targeted small molecules and PI3K pathway inhibitors. […] Compounds. […] If the clinical Cmax for an agent had not been determined, the highest concentration tested was 10 microM. […]
Give one outcome, nothing more. List: active, inactive

// param item: CC1(C)CCC(CN2CCN(c3ccc(C(=O)NS(=O)(=O)c4ccc(NCC5CCOCC5)c([N+](=O)[O-])c4)c(Oc4cnc5[nH]ccc5c4)c3)CC2)=C(c2ccc(Cl)cc2)C1 + CC(Nc1ncnc2nc[nH]c12)c1cc2cccc(Cl)c2c(=O)n1-c1ccccc1 ; yields the recorded call
inactive

Given CC1(C)CCC(CN2CCN(c3ccc(C(=O)NS(=O)(=O)c4ccc(NCC5CCOCC5)c([N+](=O)[O-])c4)c(Oc4cnc5[nH]ccc5c4)c3)CC2)=C(c2ccc(Cl)cc2)C1 + Cc1nc(NC(=O)N2CCCC2C(N)=O)sc1-c1ccnc(C(C)(C)C(F)(F)F)c1 , state the outcome it received in this test.
inactive

Recorded call for CC(Cn1ccc(-c2ccc(C#N)c(Cl)c2)n1)NC(=O)c1cc(C(C)O)[nH]n1 (stereo not given) + CC(Nc1ncnc2nc[nH]c12)c1cc2cccc(Cl)c2c(=O)n1-c1ccccc1 ?
inactive

Write down the call the test reported for this compound. Item: CC1(C)CCC(Nc2ncc(C(F)(F)F)c(-c3c[nH]c4c(P(C)(C)=O)c(C#N)ccc34)n2)CN1 (stereo not given) + CC(Nc1ncnc2nc[nH]c12)c1cc2cccc(Cl)c2c(=O)n1-c1ccccc1
inactive

Recorded test call requested for CCCS(=O)(=O)Nc1ccc(F)c(C(=O)c2c[nH]c3ncc(-c4ccc(Cl)cc4)cc23)c1F + CC(Nc1ncnc2nc[nH]c12)c1cc2cccc(Cl)c2c(=O)n1-c1ccccc1
active

So what was the verdict on CC(C)NCC(C(=O)N1CCN(c2ncnc3c2C(C)CC3O)CC1)c1ccc(Cl)cc1 (stereo not given) + Cc1nc(NC(=O)N2CCCC2C(N)=O)sc1-c1ccnc(C(C)(C)C(F)(F)F)c1 in this test?
inactive

For CC(C)NCC(C(=O)N1CCN(c2ncnc3c2C(C)CC3O)CC1)c1ccc(Cl)cc1 (stereo not given) + CC(Nc1ncnc2nc[nH]c12)c1cc2cccc(Cl)c2c(=O)n1-c1ccccc1 , which call appears in the assay record?
inactive

Assay outcome for C=CC(=O)N1CCN(c2nc(=O)n(-c3c(C)ccnc3C(C)C)c3nc(-c4c(O)cccc4F)c(F)cc23)C(C)C1 (stereo not given) + CC(Nc1ncnc2nc[nH]c12)c1cc2cccc(Cl)c2c(=O)n1-c1ccccc1 : what was it?
inactive

Which outcome did this test record for the compound CNC(=O)c1ccc(N2C(=S)N(c3ccc(C#N)c(C(F)(F)F)c3)C(=O)C2(C)C)cc1F + Cc1nc(NC(=O)N2CCCC2C(N)=O)sc1-c1ccnc(C(C)(C)C(F)(F)F)c1 ?
inactive

Please share the test call associated with CC(Cn1ccc(-c2ccc(C#N)c(Cl)c2)n1)NC(=O)c1cc(C(C)O)[nH]n1 (stereo not given) + Cc1nc(NC(=O)N2CCCC2C(N)=O)sc1-c1ccnc(C(C)(C)C(F)(F)F)c1 .
inactive

----------
Tested on: 648629-189-R-J1-PDC spheroids with HUVEC/MSC, viability
assayDetails: Anticancer human tumor 648629-189-R-J1-PDC cell line growth inhibition [PI3K];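 also: spheroids exposed to agents for seven days before reading; percent of vehicle control luminescence where 100% = DMSO treated spheroids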
conditions: second compound 0.316 µM; first compound 10 µM; active compounds read low
Sorting guide: entries reporting viability, T/C beneath 70% go in the YES pile, the rest go in the NO pile.

Is viability, T/C of CC1(C)CCC(CN2CCN(c3ccc(C(=O)NS(=O)(=O)c4ccc(NCC5CCOCC5)c([N+](=O)[O-])c4)c(Oc4cnc5[nH]ccc5c4)c3)CC2)=C(c2ccc(Cl)cc2)C1 + CC(Nc1ccc2c(c1)OCCn1cc(N3C(=O)OCC3C(F)F)nc1-2)C(N)=O strictly below 70%?
YES

A record lists CCCS(=O)(=O)Nc1ccc(F)c(C(=O)c2c[nH]c3ncc(-c4ccc(Cl)cc4)cc23)c1F + Cc1nc(NC(=O)N2CCCC2C(N)=O)sc1-c1ccnc(C(C)(C)C(F)(F)F)c1 . Is its viability, T/C below 70%?
YES

Determine whether this compound shows viability, T/C lower than 70% (ties excluded): CNC(=O)c1ccc(N2C(=S)N(c3ccc(C#N)c(C(F)(F)F)c3)C(=O)C2(C)C)cc1F + COc1c(OCCCN2CCOCC2)ccc2c3n(c(=NC(=O)c4cnc(N)nc4)nc12)CCN3
YES

# check: viability, T/C < 70% for CCCS(=O)(=O)Nc1ccc(F)c(C(=O)c2c[nH]c3ncc(-c4ccc(Cl)cc4)cc23)c1F + CC(Nc1ncnc2nc[nH]c12)c1cc2cccc(Cl)c2c(=O)n1-c1ccccc1
YES

State whether 70% exceeds viability, T/C recorded for C#Cc1c(F)ccc2cc(O)cc(-c3ncc4c(N5CC6CCC(C5)N6)nc(OCC56CCCN5CC(F)C6)nc4c3F)c12 (configuration not stated) + CC(Nc1ccc2c(c1)OCCn1cc(N3C(=O)OCC3C(F)F)nc1-2)C(N)=O .
NO

Determine if CC(C)NCC(C(=O)N1CCN(c2ncnc3c2C(C)CC3O)CC1)c1ccc(Cl)cc1 (configuration not stated) + Cc1nc(NC(=O)N2CCCC2C(N)=O)sc1-c1ccnc(C(C)(C)C(F)(F)F)c1 shows viability, T/C strictly lower than 70%.
YES

# check: viability, T/C < 70% for Cn1nccc1Nc1nccc(-c2ccn(C(CO)c3ccc(Cl)c(F)c3)c(=O)c2)n1 (configuration not stated) + Cc1nc(NC(=O)N2CCCC2C(N)=O)sc1-c1ccnc(C(C)(C)C(F)(F)F)c1
NO

Given C=CC(=O)N1CCN(c2nc(=O)n(-c3c(C)ccnc3C(C)C)c3nc(-c4c(O)cccc4F)c(F)cc23)C(C)C1 (configuration not stated) + CC(Nc1ncnc2nc[nH]c12)c1cc2cccc(Cl)c2c(=O)n1-c1ccccc1 , is recorded viability, T/C strictly lower than 70%?
NO

Is the reported viability, T/C for CC1(C)CCC(CN2CCN(c3ccc(C(=O)NS(=O)(=O)c4ccc(NCC5CCOCC5)c([N+](=O)[O-])c4)c(Oc4cnc5[nH]ccc5c4)c3)CC2)=C(c2ccc(Cl)cc2)C1 + CC(Nc1ncnc2nc[nH]c12)c1cc2cccc(Cl)c2c(=O)n1-c1ccccc1 strictly below 70%?
YES

For Cn1ncc(Cl)c1-c1cc(C(=O)NC(CN)Cc2cccc(F)c2)sc1Cl (configuration not stated) + Cc1nc(NC(=O)N2CCCC2C(N)=O)sc1-c1ccnc(C(C)(C)C(F)(F)F)c1 , is the recorded viability, T/C below the cut-off of 70%?
YES

Is viability, T/C of CC(C)NCC(C(=O)N1CCN(c2ncnc3c2C(C)CC3O)CC1)c1ccc(Cl)cc1 (configuration not stated) + COc1c(OCCCN2CCOCC2)ccc2c3n(c(=NC(=O)c4cnc(N)nc4)nc12)CCN3 strictly below 70%?
YES

Data origin: PubChem BioAssay AID1963974
